Overview of reported LC retention time across a group of molecules:
# assay procedure: Waters ACQUITY UPLC BEH C18, 100 × 2.1 mm, 1.7 µm, 40 °C, 0.28 mL/min, estimated dead time 0.63 min; A: water + 6.5 mM ammonium hydroxide; B: methanol + 6.5 mM ammonium hydroxide; gradient (min/%B) 0/0.5 4/70 4.5/98 5.4/98
# condition description: stereoisomer not certain
I only need the number, in min, no unit after it.

CC(=O)S
2.35
Cn1c(=O)c2[nH]c(=O)[nH]c2n(C)c1=O
1.92
O=C(CO)C(OC1OC(CO)C(O)C(O)C1O)C(O)C(O)CO (centres undefined)
0.828
O=C(CO)C(O)C(O)C(O)CO (centres undefined)
0.816
NC(Cc1ccc(O)c([N+](=O)[O-])c1)C(=O)O (centres undefined)
1.1

Now look at this entry.
Lab book: LC retention time of `NC(N)=Nc1nc(CSCCC(N)=NS(N)(=O)=O)cs1` noted as 3.07
